Assay: log P
Format: physicochemical
Details: Table 3

# MOLECULE, logP
data = [
    ("COC(C(=NOCCNC(=O)c1[nH]c2ccc(Cl)cc2c1-c1cccs1)C(O)C(C)O)C1Cc2cc3cc(OC4CC(OC5CC(O)C(O)C(C)O5)C(O)C(C)O4)c(C)c(O)c3c(O)c2C(=O)C1OC1CC(OC2CC(OC3CC(C)(O)C(O)C(C)O3)C(O)C(C)O2)C(O)C(C)O1 (stereo not drawn)", 3.3),
    ("COC(C(=NOCCNC(=O)c1[nH]c2ccc(Cl)cc2c1-c1ccccc1)C(O)C(C)O)C1Cc2cc3cc(OC4CC(OC5CC(O)C(O)C(C)O5)C(O)C(C)O4)c(C)c(O)c3c(O)c2C(=O)C1OC1CC(OC2CC(OC3CC(C)(O)C(O)C(C)O3)C(O)C(C)O2)C(O)C(C)O1 (stereo not drawn)", 3.49),
    ("CO[C@H](C(=NOCCNC(=O)c1[nH]c2ccc(Cl)cc2c1-c1ccc(Cl)cc1)[C@@H](O)[C@@H](C)O)[C@@H]1Cc2cc3cc(O[C@H]4C[C@@H](O[C@H]5C[C@@H](O)[C@H](O)[C@@H](C)O5)[C@H](O)[C@@H](C)O4)c(C)c(O)c3c(O)c2C(=O)[C@H]1O[C@H]1C[C@@H](O[C@H]2C[C@@H](O[C@H]3C[C@](C)(O)[C@H](O)[C@@H](C)O3)[C@@H](O)[C@@H](C)O2)[C@H](O)[C@@H](C)O1", 4.21),
]

---

Assay: log P
Type: physicochemical
Details: Table 2

# COMPOUND, log P
rows = [
    ("COC(C(=NOCC(Cc1c[nH]c2ccccc12)NC(=O)c1cc2cc(Cl)ccc2[nH]1)C(O)C(C)O)C1Cc2cc3cc(OC4CC(OC5CC(O)C(O)C(C)O5)C(O)C(C)O4)c(C)c(O)c3c(O)c2C(=O)C1OC1CC(OC2CC(OC3CC(C)(O)C(O)C(C)O3)C(O)C(C)O2)C(O)C(C)O1 (stereo not drawn)", 4.34),
    ("COC(C(=NOCCCNC(=O)c1[nH]c2ccc(Cl)cc2c1-c1ccc(Cl)cc1)C(O)C(C)O)C1Cc2cc3cc(OC4CC(OC5CC(O)C(O)C(C)O5)C(O)C(C)O4)c(C)c(O)c3c(O)c2C(=O)C1OC1CC(OC2CC(OC3CC(C)(O)C(O)C(C)O3)C(O)C(C)O2)C(O)C(C)O1 (stereo not drawn)", 4.69),
    ("COc1ccc2[nH]c(C(=O)NCCON=C([C@@H](O)[C@@H](C)O)[C@@H](OC)[C@@H]3Cc4cc5cc(O[C@H]6C[C@@H](O[C@H]7C[C@@H](O)[C@H](O)[C@@H](C)O7)[C@H](O)[C@@H](C)O6)c(C)c(O)c5c(O)c4C(=O)[C@H]3O[C@H]3C[C@@H](O[C@H]4C[C@@H](O[C@H]5C[C@](C)(O)[C@H](O)[C@@H](C)O5)[C@@H](O)[C@@H](C)O4)[C@H](O)[C@@H](C)O3)c(-c3ccc(Cl)cc3)c2c1", 3.58),
]

---

5838 data, read-out GI50

# COMPOUND, GI50 / µM
records = [
    ("COC(C(=NOCc1cc2ccccc2[nH]1)C(O)C(C)O)C1Cc2cc3cc(OC4CC(OC5CC(O)C(O)C(C)O5)C(O)C(C)O4)c(C)c(O)c3c(O)c2C(=O)C1OC1CC(OC2CC(OC3CC(C)(O)C(O)C(C)O3)C(O)C(C)O2)C(O)C(C)O1 (centres unmarked)", 0.0275),
    ("CO[C@H](C(=NOCCNC(=O)c1cc2cc(F)ccc2[nH]1)[C@@H](O)[C@@H](C)O)[C@@H]1Cc2cc3cc(O[C@H]4C[C@@H](O[C@H]5C[C@@H](O)[C@H](O)[C@@H](C)O5)[C@H](O)[C@@H](C)O4)c(C)c(O)c3c(O)c2C(=O)[C@H]1O[C@H]1C[C@@H](O[C@H]2C[C@@H](O[C@H]3C[C@](C)(O)[C@H](O)[C@@H](C)O3)[C@@H](O)[C@@H](C)O2)[C@H](O)[C@@H](C)O1", 0.0402),
    ("COC(C(=NOCCNC(=O)c1[nH]c2ccc(Cl)cc2c1-c1c(C)noc1C)C(O)C(C)O)C1Cc2cc3cc(OC4CC(OC5CC(O)C(O)C(C)O5)C(O)C(C)O4)c(C)c(O)c3c(O)c2C(=O)C1OC1CC(OC2CC(OC3CC(C)(O)C(O)C(C)O3)C(O)C(C)O2)C(O)C(C)O1 (centres unmarked)", 0.0266),
    ("CO[C@H](C(=NOCCNC(=O)c1cc2cc(OC(F)(F)F)ccc2[nH]1)[C@@H](O)[C@@H](C)O)[C@@H]1Cc2cc3cc(O[C@H]4C[C@@H](O[C@H]5C[C@@H](O)[C@H](O)[C@@H](C)O5)[C@H](O)[C@@H](C)O4)c(C)c(O)c3c(O)c2C(=O)[C@H]1O[C@H]1C[C@@H](O[C@H]2C[C@@H](O[C@H]3C[C@](C)(O)[C@H](O)[C@@H](C)O3)[C@@H](O)[C@@H](C)O2)[C@H](O)[C@@H](C)O1", 0.0371),
    ("COC(C(=NOCCNC(=O)c1cc2cc(Br)ccc2[nH]1)C(O)C(C)O)C1Cc2cc3cc(OC4CC(OC5CC(O)C(O)C(C)O5)C(O)C(C)O4)c(C)c(O)c3c(O)c2C(=O)C1OC1CC(OC2CC(OC3CC(C)(O)C(O)C(C)O3)C(O)C(C)O2)C(O)C(C)O1 (centres unmarked)", 0.0302),
]

---

Assay: Clearance (CL) / pharmacokinetics
Assay type: in vivo, mice
Conditions: Table 3
MEASURED METRIC: CL (mL/min/kg)

# COMPOUND, READOUT VALUE
records = [
    ("COC(C(=NOCCNC(=O)c1[nH]c2ccc(C(F)(F)F)cc2c1-c1ccccc1)C(O)C(C)O)C1Cc2cc3cc(OC4CC(OC5CC(O)C(O)C(C)O5)C(O)C(C)O4)c(C)c(O)c3c(O)c2C(=O)C1OC1CC(OC2CC(OC3CC(C)(O)C(O)C(C)O3)C(O)C(C)O2)C(O)C(C)O1 (stereo not shown)", 0.2),
]

---

Test: log P
Type: physicochemical
Conditions: Table 2
Use fulfilled when the recorded logP is no lower than 2; use not fulfilled when it is lower.

# COMPOUND, CLASS
measured = [
    ("COc1ccc2[nH]c(C(=O)NCCON=C([C@@H](O)[C@@H](C)O)[C@@H](OC)[C@@H]3Cc4cc5cc(O[C@H]6C[C@@H](O[C@H]7C[C@@H](O)[C@H](O)[C@@H](C)O7)[C@H](O)[C@@H](C)O6)c(C)c(O)c5c(O)c4C(=O)[C@H]3O[C@H]3C[C@@H](O[C@H]4C[C@@H](O[C@H]5C[C@](C)(O)[C@H](O)[C@@H](C)O5)[C@@H](O)[C@@H](C)O4)[C@H](O)[C@@H](C)O3)cc2c1", "not fulfilled"),
    ("COC(C(=NOCCNC(=O)c1cc2cc(Br)ccc2[nH]1)C(O)C(C)O)C1Cc2cc3cc(OC4CC(OC5CC(O)C(O)C(C)O5)C(O)C(C)O4)c(C)c(O)c3c(O)c2C(=O)C1OC1CC(OC2CC(OC3CC(C)(O)C(O)C(C)O3)C(O)C(C)O2)C(O)C(C)O1 (stereo not drawn)", "fulfilled"),
    ("COC(C(=NOCCNC(=O)c1[nH]c2ccc(Cl)cc2c1-c1c(C)noc1C)C(O)C(C)O)C1Cc2cc3cc(OC4CC(OC5CC(O)C(O)C(C)O5)C(O)C(C)O4)c(C)c(O)c3c(O)c2C(=O)C1OC1CC(OC2CC(OC3CC(C)(O)C(O)C(C)O3)C(O)C(C)O2)C(O)C(C)O1 (stereo not drawn)", "fulfilled"),
    ("COC(C(=NOCc1cc2ccccc2[nH]1)C(O)C(C)O)C1Cc2cc3cc(OC4CC(OC5CC(O)C(O)C(C)O5)C(O)C(C)O4)c(C)c(O)c3c(O)c2C(=O)C1OC1CC(OC2CC(OC3CC(C)(O)C(O)C(C)O3)C(O)C(C)O2)C(O)C(C)O1 (stereo not drawn)", "not fulfilled"),
    ("CO[C@H](C(=NOCCNC(=O)c1[nH]c2ccc(Cl)cc2c1-c1cncnc1)[C@@H](O)[C@@H](C)O)[C@@H]1Cc2cc3cc(O[C@H]4C[C@@H](O[C@H]5C[C@@H](O)[C@H](O)[C@@H](C)O5)[C@H](O)[C@@H](C)O4)c(C)c(O)c3c(O)c2C(=O)[C@H]1O[C@H]1C[C@@H](O[C@H]2C[C@@H](O[C@H]3C[C@](C)(O)[C@H](O)[C@@H](C)O3)[C@@H](O)[C@@H](C)O2)[C@H](O)[C@@H](C)O1", "not fulfilled"),
    ("COC(C(=NOCCNC(=O)c1[nH]c2ccc(Cl)cc2c1-c1ccnn1C)C(O)C(C)O)C1Cc2cc3cc(OC4CC(OC5CC(O)C(O)C(C)O5)C(O)C(C)O4)c(C)c(O)c3c(O)c2C(=O)C1OC1CC(OC2CC(OC3CC(C)(O)C(O)C(C)O3)C(O)C(C)O2)C(O)C(C)O1 (stereo not drawn)", "not fulfilled"),
]
